- measurementNotes: in vivo
- conditionsUsed: Sprague-Dawley, rat
Recorded Cmax for the following molecules
A number alone suffices; assume nM.

COc1cc(N2C(=O)N(c3ccc(-c4ccc(C(=O)O)cc4C)cc3)C(=O)C23CCN(Cc2ncccc2C)CC3)ncn1 570
Cc1cccnc1CN1CCC2(CC1)C(=O)N(c1ccc(-c3ccc(C(=O)O)cc3)cc1)C(=O)N2c1ncccn1 100
Cc1cccnc1CN1CCC2(CC1)NC(=O)N(c1ccc(-c3ccccc3)cc1)C2=O 17

Form field: reported Cmax of Cc1cccnc1CN1CCC2(CC1)C(=O)N(c1ccc(-c3ccccc3)cc1)C(=O)N2c1ccc(O)nn1 300

---

- measurementNotes: Volume of distribution at steady state in dog
- Assay type: ADME, organism-based, Canis lupus familiaris
- conditionsUsed: in vivo, read-out: Vdss
valueKind: Vd (L/kg)
Field format: number, assumed L/kg, no unit text.

Sample Cc1cccnc1CN1CCC2(CC1)C(=O)N(c1ccc(-c3ccccc3)cc1)C(=O)N2c1nccc(O)n1 — what was its Vd? 1.1

---

Listing of entries alongside the reported CL/F.
- measurementNotes: Clearance in mouse at 5 mg/kg, po
- Assay type: ADME, organism-based
- Design: dose 5 mg/kg, route oral
- conditionsUsed: in vivo
Numbers only here, please. The scale is mL/min/kg.

Which CL/F is listed for Cc1cccnc1CN1CCC2(CC1)C(=O)N(c1ccc(-c3ccccc3)cc1)C(=O)N2c1nccc(O)n1 ? 13

State the recorded CL/F for this entry: COc1cc(N2C(=O)N(c3ccc(-c4ccc(C(=O)O)cc4)cc3)C(=O)C23CCN(Cc2ncccc2C)CC3)ncn1 1.2

---

Entries and their Vd values follow.
- measurementNotes: in vivo
- conditionsUsed: Sprague-Dawley, rat
// unit must come after the numeric part

// solved cases for Vd follow
molecule	testValue
COc1cc(N2C(=O)N(c3ccc(-c4ccc(C(=O)O)cc4C)cc3)C(=O)C23CCN(Cc2ncccc2C)CC3)ncn1	4.3 L/kg
Cc1cccnc1CN1CCC2(CC1)C(=O)N(c1ccc(-c3ccccc3)cc1)c1ccccc12	8.2 L/kg
Cc1cccnc1CN1CCC2(CC1)C(=O)N(c1ccc(-c3ccccc3)cc1)C(=O)N2c1ncccn1	2.1 L/kg

Could you tell me which Vd is on file for Cc1cccnc1CN1CCC2(CC1)C(=O)N(c1ccc(-c3ccccc3)cc1)c1ncccc12 ? 8 L/kg

Which measured Vd value corresponds to Cc1cc(C(=O)O)ccc1-c1ccc(N2C(=O)N(c3ccncn3)C3(CCN(Cc4ncccc4C)CC3)C2=O)cc1 ? 1.9 L/kg

Vd lookup needed for Cc1cccnc1CN1CCC2(CC1)C(=O)N(c1ccc(-c3ccc(C(=O)O)cc3)cc1)C(=O)N2c1ncccn1 , thanks. 2.2 L/kg

Return reported Vd; argument: Cc1cc(C(=O)O)ccc1-c1ccc(N2C(=O)N(c3cnccn3)C3(CCN(Cc4ncccc4C)CC3)C2=O)cc1 1.6 L/kg

Find the recorded Vd belonging to Cc1cccnc1CN1CCC2(C(=O)N(c3ccc(-c4ccccc4)cc3)C(=O)N2c2cc(O)ncn2)C(C(=O)O)C1 (stereo not drawn) and report it. 0.34 L/kg

---

- measurementNotes: Cmax in dog
- Assay type: ADME, organism-based, Canis lupus familiaris
- conditionsUsed: in vivo
valueKind: Cmax (nM)
Write it as a number; the unit nM goes unstated.

What value of Cmax has been recorded for this entry: Cc1cccnc1CN1CCC2(CC1)C(=O)N(c1ccc(-c3ccccc3)cc1)C(=O)N2c1nccc(O)n1 1500

---

Each item that follows carries a reported Cmax.
- measurementNotes: in vivo
- conditionsUsed: Sprague-Dawley, rat
Form field: result (number plus unit)

Here is how some molecules turned out for Cmax.
molecule	Cmax
COc1cc(N2C(=O)N(c3ccc(-c4ccc(C(=O)O)cc4)cc3)C(=O)C23CCN(Cc2ncccc2C)CC3)ncn1	1900 nM
Cc1cccnc1CN1CCC2(CC1)C(=O)N(c1ccc(-c3ccccc3)cc1)c1ncccc12	40 nM

Find the recorded Cmax belonging to Cc1cccnc1CN1CCC2(CC1)C(=O)N(c1ccc(-c3ccccc3)cc1)C(=O)N2c1nccc(O)n1 and report it. 990 nM

---

- measurementNotes: Metabolic stability in rat liver microsomes assessed as compound remaining after 30 mins
- Format: ADME, Microsome
- conditionsUsed: read-out: Stability
valueKind: remaining at 0.5 h (%)
Record the value in %, omitting the unit from your answer.

Can you look up the measured remaining at 0.5 h of Cc1cccnc1CN1CCC2(CC1)C(=O)N(c1cnc3ccccc3c1)c1ccccc12 for me? 35

---

- measurementNotes: Half life in mouse at 5 mg/kg, po
- Type: ADME, organism-based
- Design: dose 5 mg/kg, route oral
- conditionsUsed: in vivo
Here the recorded half-life is given for each entry.
Numeric answer only, unit h assumed.

Cc1cccnc1CN1CCC2(CC1)C(=O)N(c1ccc(-c3ccccc3)cc1)C(=O)N2c1nccc(O)n1 1.4

Now turn to the next compound.
# query: half-life of entry COc1cc(N2C(=O)N(c3ccc(-c4ccc(C(=O)O)cc4)cc3)C(=O)C23CCN(Cc2ncccc2C)CC3)ncn1 3.7

---

- measurementNotes: AUC in Sprague-Dawley rat
- Assay type: ADME, organism-based
- Set-up: concentration or dose not given beside the values
- conditionsUsed: plasma
Threshold-based label: AUC under 1 µM·h gives yes (1), AUC not under 1 µM·h gives no (0).

compound	class
Cc1cccnc1CN1CCC2(CC1)C(=O)N(c1ccc(-c3ccccc3)cc1)c1ncccc12	yes (1)
Cc1cccnc1CN1CCC2(NC(=O)N(c3ccc(-c4ccccc4)cc3)C2=O)C(C(=O)O)C1 (stereo not given)	no (0)
Cc1cccnc1CN1CCC2(CC1)NC(=O)N(c1ccc(-c3ccccc3)cc1)C2=O	yes (1)
Cc1cccnc1CN1CCC2(CC1)C(=O)N(c1ccc(-c3ccccc3)cc1)c1ccccc12	no (0)

Then there is this compound:
Find out if reported AUC for Cc1cccnc1CN1CCC2(CC1)C(=O)N(c1ccc(-c3ccccc3)cc1)C(=O)N2c1nccc(O)n1 is less than 1 µM·h no (0)

---

- measurementNotes: Oral bioavailability in mouse at 5 mg/kg
- Format: ADME, organism-based
- conditionsUsed: in vivo
Quick reference: bioavailability of the listed items.
# value in %; strip the unit string

Solved cases (2 shown):
compound	bioavailability [%]
COc1cc(N2C(=O)N(c3ccc(-c4ccc(C(=O)O)cc4)cc3)C(=O)C23CCN(Cc2ncccc2C)CC3)ncn1	36
Cc1cccnc1CN1CCC2(CC1)C(=O)N(c1ccc(-c3ccccc3)cc1)C(=O)N2c1nccc(O)n1	78

// next item, bioavailability requested
I have this compound here, Cc1cccnc1CN1CCC2(C(=O)N(c3ccc(-c4ccccc4)cc3)C(=O)N2c2cc(O)ncn2)C(C(=O)O)C1 (stereo not drawn) , and I need its recorded bioavailability. 7.1

---

- measurementNotes: Toxicity in iv dosed C57BL/6 mouse assessed as no observable effect level
- Format: organism-based
- conditionsUsed: in vivo
valueKind: NOAEL (mg/kg)
State just the number; it will be interpreted in mg/kg.

Look at this molecule and give its reported NOAEL. COc1cc(N2C(=O)N(c3ccc(-c4ccc(C(=O)O)cc4C)cc3)C(=O)C23CCN(Cc2ncccc2C)CC3)ncn1 50

---

- measurementNotes: AUC in dog
- Assay type: ADME, organism-based, Canis lupus familiaris
- conditionsUsed: plasma
valueKind: AUC (µM·h)
Expressed in µM·h, but write only the number.

I am curious: what AUC value has been reported for Cc1cccnc1CN1CCC2(CC1)C(=O)N(c1ccc(-c3ccccc3)cc1)C(=O)N2c1nccc(O)n1 ? 41

---

- measurementNotes: Clearance in dog
- Type: ADME, organism-based, Canis lupus familiaris
- conditionsUsed: in vivo
valueKind: clearance

Tell me the measured clearance of Cc1cccnc1CN1CCC2(CC1)C(=O)N(c1ccc(-c3ccccc3)cc1)C(=O)N2c1nccc(O)n1 , please. 1.3 mL/min/kg

---

- measurementNotes: Half life in dog
- Format: ADME, organism-based, Canis lupus familiaris
- conditionsUsed: in vivo
valueKind: half-life

// half-life lookup, key: Cc1cccnc1CN1CCC2(CC1)C(=O)N(c1ccc(-c3ccccc3)cc1)C(=O)N2c1nccc(O)n1 13 h

---

- measurementNotes: in vivo
- conditionsUsed: Sprague-Dawley, rat
valueKind: clearance (mL/min/kg)
The answer is to be given in mL/min/kg; state only the numeric part.

Known clearance results, listed for orientation:
compound	clearance / mL/min/kg
COc1cc(N2C(=O)N(c3ccc(-c4ccc(C(=O)O)cc4)cc3)C(=O)C23CCN(Cc2ncccc2C)CC3)ncn1	8.8
COc1cc(N2C(=O)N(c3ccc(-c4ccc(C(=O)O)cc4C)cc3)C(=O)C23CCN(Cc2ncccc2C)CC3)ncn1	11.9
Cc1cccnc1CN1CCC2(CC1)C(=O)N(c1ccc(-c3ccccc3)cc1)C(=O)N2c1ncccn1	51

Let's switch to this compound now.
Recorded clearance of Cc1cccnc1CN1CCC2(C(=O)N(c3ccc(-c4ccccc4)cc3)C(=O)N2c2cc(O)ncn2)C(C(=O)O)C1 (centres undefined) , please. 1.2

---

half-life: recorded values
- measurementNotes: in vivo
- conditionsUsed: Sprague-Dawley, rat
Please respond with the number in h and leave the unit unwritten.

Would you please look over these solved cases?
Cc1cccnc1CN1CCC2(CC1)C(=O)N(c1ccc(-c3ccccc3)cc1)C(=O)N2c1ncccn1 1.1
COc1cc(N2C(=O)N(c3ccc(-c4ccc(C(=O)O)cc4)cc3)C(=O)C23CCN(Cc2ncccc2C)CC3)ncn1 2.6

Can you look up the measured half-life of COc1cc(N2C(=O)N(c3ccc(-c4ccc(C(=O)O)cc4C)cc3)C(=O)C23CCN(Cc2ncccc2C)CC3)ncn1 for me? 4.1

# half-life lookup, item Cc1cccnc1CN1CCC2(CC1)C(=O)N(c1ccc(-c3ccccc3)cc1)C(=O)N2c1ccnc(O)n1 1.2

Requested field: half-life. Item: Cc1cc(C(=O)O)ccc1-c1ccc(N2C(=O)N(c3cnccn3)C3(CCN(Cc4ncccc4C)CC3)C2=O)cc1 1.5
